# System: 3D7 P. falciparum gametocytes stage V
# assayText: P. falciparum mature gametocytes (stage V), luciferase viability
# Format: cell-based
# reportedConditions: Plasmodium falciparum, 3D7, 72 h, read-out: IC50, gametocytes of P. falciparum, Stage V
testReadout: IC50 (µM)

# molecule, testReadout, unitsSymbol, assayResult
measured = [
    ("COc1cc(NC(C)CCCN)c2ncccc2c1 (stereo not shown)", "IC50", "µM", 43.2),
]

====

# Tested on: P. falciparum W2 (CQ-resistant) asexual blood stages
# assayText: In vitro activity against asexual blood stages of P. falciparum, CQ-resistant strain W2 (HRP2 ELISA)
# Format: cell-based
# reportedConditions: Plasmodium falciparum, W2; Figure 5 summary; read-out: CQ-resistant P.f.
testReadout: IC50 (nM)

# smi, testReadout, unitsSymbol, assayResult
data = [
    ("CCN(CC)Cc1cc(Nc2ccnc3cc(Cl)ccc23)ccc1O", "IC50", "nM", 86),
]

====

# System: β-hematin formation from Fe(III)PPIX (hematin)
# assayText: β-hematin inhibition activity, oxidizing conditions (O-BHIA, hematin)
# Assay type: biochemical
# reportedConditions: 18 h incubation; median ± S.E.M. of three experiments; free bases; read-out: β-Hematin Inhibitory Activity (BHIA) O-BHIA (Hematin), IC50
# Method: A hemin chloride (10 μL of 4 mM stock in 80% DMSO) aliquot was dispensed in a U bottom 96-well microplate, and then, 10 μL of 0.1 M NaOH (O-BHIA) or 4 mM reduced glutathione in PBS at pH 7.0 (R-BHIA) was added, and plates were sealed and incubated at 37 °C for 2 h. After this, 10 μL of the drug dissolved in DMSO was added and incubated for 2 h, followed by the addition of 180 μL of sodium acetate buffer (1.0 M, pH 5.2) and 10 μL of nonionic detergent IGEPAL-CA-630 solution in methanol (10 mg/mL). […]
pIC50: −log10 of the molar value.
Below, each entry is listed with its recorded pIC50.
testReadout: pIC50

# molecule, testedTarget, censoringSign, assayResult
data = [
    ("C[C@@H]1CC[C@H]2[C@@H](C)C(=O)O[C@@H]3O[C@@]4(C)CC[C@@H]1[C@]32OO4 [Artemisinin (ARS), artemisinin]", "β-hematin formation from Fe(III)PPIX (hematin)", "<", 3.00),
    ("CCN(CC)CCCC(C)Nc1ccnc2cc(Cl)ccc12 (stereo not shown) [Chloroquine (CQ), chloroquine]", "β-hematin formation from Fe(III)PPIX (hematin)", "=", 3.64),
    ("CCN(CC)Cc1cc(Nc2ccnc3cc(Cl)ccc23)ccc1O [Amodiaquine (AQ), amodiaquine]", "β-hematin formation from Fe(III)PPIX (hematin)", "=", 3.85),
    ("COc1cc(NC(C)CCCN)c2ncccc2c1 (stereo not shown) [Primaquine (PQ), primaquine]", "β-hematin formation from Fe(III)PPIX (hematin)", "<", 3.00),
]

====

# assayText: Cytotoxicity against J774 cells (CellTiter-Glo)
# Type: cell-based, murine
# reportedConditions: mouse, J774 macrophage cells; reference drug, J774; read-out: CC50 for J774

# compound, CC50 at 72 h / nM
rows = [
    ("COc1cccc2c1C(=O)c1c(O)c3c(c(O)c1C2=O)C[C@@](O)(C(=O)CO)C[C@@H]3O[C@H]1C[C@H](N)[C@H](O)[C@H](C)O1 [doxorubicin]", 440),
]

====

Here, each record is paired with measured pIC50 data.
# testedTarget: UniProtKB P00390
# Sequence (P00390 44-522): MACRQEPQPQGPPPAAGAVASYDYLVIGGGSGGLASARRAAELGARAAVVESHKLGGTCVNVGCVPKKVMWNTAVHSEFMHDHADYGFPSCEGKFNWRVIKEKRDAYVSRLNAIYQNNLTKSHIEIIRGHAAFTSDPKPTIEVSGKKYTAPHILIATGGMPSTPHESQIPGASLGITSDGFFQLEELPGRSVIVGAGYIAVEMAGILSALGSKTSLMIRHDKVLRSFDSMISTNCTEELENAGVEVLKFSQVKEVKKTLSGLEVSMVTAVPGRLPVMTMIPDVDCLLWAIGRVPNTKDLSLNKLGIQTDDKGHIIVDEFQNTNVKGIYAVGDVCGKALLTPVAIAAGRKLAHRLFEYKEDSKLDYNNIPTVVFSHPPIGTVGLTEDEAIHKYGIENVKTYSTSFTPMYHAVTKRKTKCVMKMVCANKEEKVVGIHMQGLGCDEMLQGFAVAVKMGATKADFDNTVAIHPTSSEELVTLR
# assayText: Inhibition of enzymatic activity of recombinant human glutathione reductase
# reportedConditions: recombinant enzyme, 15 min preincubation; mean of one experiment; read-out: IC50, Human GR
# Protocol: The codon-optimized sequence for PfTrxR [27, 28] was synthesized and subcloned into pET-15b (Genscript) and expressed and purified as for human glutathione reductase (hGR). Recombinant Schistosoma mansoni (S. mansoni) thioredoxin glutathione reductase (SmTGR), human TrxR (hTrxR), and hGR proteins were expressed and purified as described. […] The increase in A412 during the first 3 min was recorded. […] The IC50s were calculated in Prism version 5.01.
pIC50: −log10 of the molar value.
testReadout: pIC50

# compound, censoringSign, assayResult
records = [
    ("[Cl][Au].c1ccc(P(c2ccccc2)c2ccccc2)cc1 [[AuClPPh3]]", "=", 8.93),
    ("CCN(CC)Cc1cc(Nc2ccnc3cc(Cl)ccc23)ccc1O [Amodiaquine (AQ), amodiaquine]", "<", 4.18),
    ("CC(=O)OC[C@H]1O[C@@H]([S-])[C@H](OC(C)=O)[C@@H](OC(C)=O)[C@@H]1OC(C)=O.CCP(CC)CC.[Au+] [Auranofin, auranofin]", "=", 4.40),
]

====

# assayText: Cytotoxicity against uninfected HepG2 cells (CellTiter-Glo)
# Assay type: cell-based
# reportedConditions: human, reference drug
testReadout: CC50 at 72 h

# smi, testReadout, assayResult
records = [
    ("COc1cccc2c1C(=O)c1c(O)c3c(c(O)c1C2=O)C[C@@](O)(C(=O)CO)C[C@@H]3O[C@H]1C[C@H](N)[C@H](O)[C@H](C)O1", "CC50 at 72 h", "< 120 nM"),
]

====

# testedTarget: PfTrxR (Plasmodium falciparum)
# Construct: made in house
# Sequence (Q25861 whole entry): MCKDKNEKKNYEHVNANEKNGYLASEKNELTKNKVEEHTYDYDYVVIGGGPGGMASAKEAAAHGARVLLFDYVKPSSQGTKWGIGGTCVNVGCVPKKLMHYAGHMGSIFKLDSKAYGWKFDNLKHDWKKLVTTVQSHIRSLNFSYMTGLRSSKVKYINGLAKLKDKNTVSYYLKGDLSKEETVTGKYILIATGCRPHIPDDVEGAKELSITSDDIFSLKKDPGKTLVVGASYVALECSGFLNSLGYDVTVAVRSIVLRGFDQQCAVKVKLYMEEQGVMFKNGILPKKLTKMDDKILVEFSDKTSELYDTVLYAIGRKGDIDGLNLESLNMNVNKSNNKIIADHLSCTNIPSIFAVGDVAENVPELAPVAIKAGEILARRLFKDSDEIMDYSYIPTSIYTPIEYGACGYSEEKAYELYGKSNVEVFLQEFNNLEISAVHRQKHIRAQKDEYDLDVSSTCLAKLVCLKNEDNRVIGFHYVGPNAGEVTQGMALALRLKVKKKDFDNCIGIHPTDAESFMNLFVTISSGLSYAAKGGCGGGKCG
# assayText: Inhibition of enzymatic activity of recombinant P. falciparum TrxR
# Assay type: biochemical
# reportedConditions: recombinant enzyme, 15 min preincubation; mean of one experiment; read-out: IC50 for TrxRs, P. falciparum (Cys)
IC50 for assorted compounds
testReadout: IC50 (nM)

# compound, testReadout, assayResult
measured = [
    ("[Cl][Au].c1ccc(P(c2ccccc2)c2ccccc2)cc1 [[AuClPPh3]]", "IC50", 1.9),
    ("CC(=O)OC[C@H]1O[C@@H]([S-])[C@H](OC(C)=O)[C@@H](OC(C)=O)[C@@H]1OC(C)=O.CCP(CC)CC.[Au+] [Auranofin, auranofin]", "IC50", 62),
]

====

# testedTarget: human TrxR (hTrxR) (Homo sapiens, UniProt Q16881)
# Sequence (Q16881 151-649 limits assumed): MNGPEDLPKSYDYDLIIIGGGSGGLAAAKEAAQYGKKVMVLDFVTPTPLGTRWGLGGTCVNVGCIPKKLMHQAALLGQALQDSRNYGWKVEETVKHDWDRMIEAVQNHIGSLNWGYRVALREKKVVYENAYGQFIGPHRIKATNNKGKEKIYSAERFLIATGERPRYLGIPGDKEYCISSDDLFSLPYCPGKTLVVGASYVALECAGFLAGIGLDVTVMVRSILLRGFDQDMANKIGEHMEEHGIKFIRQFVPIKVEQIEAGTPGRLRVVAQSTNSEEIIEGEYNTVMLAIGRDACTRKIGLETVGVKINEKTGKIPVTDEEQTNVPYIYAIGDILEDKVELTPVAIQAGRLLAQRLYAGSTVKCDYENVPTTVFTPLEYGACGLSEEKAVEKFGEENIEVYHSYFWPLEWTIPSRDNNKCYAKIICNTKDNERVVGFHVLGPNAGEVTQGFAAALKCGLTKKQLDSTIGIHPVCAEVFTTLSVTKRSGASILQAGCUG
# assayText: Inhibition of enzymatic activity of recombinant human TrxR
# reportedConditions: recombinant enzyme, 15 min preincubation; mean of one experiment; read-out: IC50 for TrxRs, Human (Sec)

# molecule, IC50 / nM
data = [
    ("CC(=O)OC[C@H]1O[C@@H]([S-])[C@H](OC(C)=O)[C@@H](OC(C)=O)[C@@H]1OC(C)=O.CCP(CC)CC.[Au+] [Auranofin, auranofin]", 20),
    ("CCN(CC)Cc1cc(Nc2ccnc3cc(Cl)ccc23)ccc1O [Amodiaquine (AQ), amodiaquine]", 26500),
    ("[Cl][Au].c1ccc(P(c2ccccc2)c2ccccc2)cc1 [[AuClPPh3]]", 0.65),
]

====

# System: P. falciparum 3D7 (CQ-susceptible) asexual blood stages
# assayText: In vitro activity against asexual blood stages of P. falciparum, CQ-susceptible strain 3D7 (HRP2 ELISA)
# Type: cell-based
# reportedConditions: Plasmodium falciparum, 3D7; 72 h incubation, HRP2 ELISA; mean ± S.E.M. of at least three experiments; AQ hydrochloride hydrate, PQ diphosphate, CQ diphosphate; read-out: P. falciparum, IC50 ± S.E.M., CQ-Susceptible 3D7
pIC50: −log10 of the molar value.
Quick list: pIC50 per entry.

# compound, pIC50
measured = [
    ("COc1cc(NC(C)CCCN)c2ncccc2c1 (centres unmarked)", 5.95),
    ("CCN(CC)Cc1cc(Nc2ccnc3cc(Cl)ccc23)ccc1O", 7.74),
]
